Values were extracted from ChEMBL document CHEMBL1201862.

# Test system: K562
# Experiment Summary: NCI tumour cell line growth inhibition, 48 h
The source made the active and inactive calls. Rule as the data show it: active = GI50 up to about 1.1 µM and inactive = higher. *1 amine or outer side, *2 acyl side, *3 side chain or, on linkers, in order; H or OH if unused. Where a SMILES comes first, the peptide text is derived from it. [ ]: non-standard residue; d: D form. The star is where a group is joined. ξ: configuration not given here. NMeY = CN[C@@H](Cc1ccc(O)cc1)C(=O)O; Ethylenediamine = C(CN[*:2])N[*:1]; ξNMeL = CNC(CC(C)C)C(=O)O; Cbz = O=C(OCc1ccccc1)*; Lac = C[C@H](O)C(=O)O; ξA = CC(N)C(=O)O
Reported GI50 by item:

Compound	GI50
CCOC(=O)N1CCc2cc(OC)c(OC)cc2/C1=C/c1ccc(OC)c(OC)c1	35.5 µM (inactive)
C1C[N+]23CCC[N+]2(C1)CCC3 (stereo not given)	> 100 µM (inactive)
Cc1nc2ccc(F)cc2c2c1CCN2c1ccc(Cl)cc1	2.26 µM (inactive)
Cc1ccc(/C=C2\Sc3scc(-c4ccccc4)[n+]3C2=O)cc1	12.3 µM (inactive)
CNC(=O)Nc1nc2cc([N+](=O)[O-])ccc2[nH]1	> 100 µM (inactive)
COc1ccc(C[C@@H](C(=O)NCCNC(=O)C(CC(C)C)N(C)C(=O)[C@@H]2CCCN2C(=O)[C@H](C)O)N(C)C(=O)[C@@H]2CCCN2C(=O)[C@H](CC(C)C)NC(=O)C(C)NC(=O)OCc2ccccc2)cc1 (stereo not given in full) (Cbz-[ξA]LP[NMeY](Me)-{Ethylenediamine-ξNMeL-Pro-Lac})	40.6 µM (inactive)
COc1ccc(C[C@@H]2CN(C(=O)c3ccccc3)[C@H](Cc3ccc(O)cc3)CN2C(=O)c2ccccc2)cc1Br	> 100 µM (inactive)
Nc1nc(O)c(Br)c(-c2cccc([N+](=O)[O-])c2)n1	> 91.4 µM (inactive)
COc1ccc(NC=O)c(C(=O)CCNC(C)=O)c1	> 100 µM (inactive)
S=C1c2ccc(Cl)cc2-n2cnnc2C2CSCN12 (stereo not given)	13.9 µM (inactive)
CCOC(=S)SSSC(=S)OCC	26.3 µM (inactive)
COc1ccc2c(CCN)c(C(=O)O)[nH]c2c1	> 24.5 µM (inactive)
CNC1(C(=O)O)CC1	> 100 µM (inactive)
COc1cc(-c2cn(S(=O)(=O)c3ccc(C)cc3)c3ccccc23)nc(-c2cn(S(=O)(=O)c3ccc(C)cc3)c3ccccc23)n1	0.373 µM (active)
O=C=C=P(c1ccccc1)(c1ccccc1)c1ccccc1	27 µM (inactive)
CC(=O)O[C@H]1CC[C@@]2(C)C(=CC[C@@H]3C2CC[C@]2(C)Nc4nc5ccccc5cc4CC32)C1 (stereo not given in full)	3.21 µM (inactive)
CC(C)C(C/C=C1\CC(CO)(COC(=O)C(C)(C)C)OC1=O)C(C)C (stereo not given)	0.942 µM (active)
COc1ccc(C2=CN3CCC[C@H]3C=C2c2cc(O)c(OC)c(OC)c2)cc1OC	0.00339 µM (active)
CSC(SC)=C1Sc2cccc(Cl)c2S1	23.9 µM (inactive)
CCOC(=O)NC(=O)c1cn(CCOCCOC(=O)NCCCCCCNC(=O)OCCOCCn2cc(C(=O)NC(=O)OCC)c(=O)[nH]c2=O)c(=O)[nH]c1=O	> 100 µM (inactive)
